System under test: T1, human B7-H4 expressed on cells (human, UniProt Q7Z7D3 25-282)
T1 construct: the cell line is named under assay or readout; also called full length human B7-H4 on HEK293 cells; 293T.hB7-H4
T1 sequence: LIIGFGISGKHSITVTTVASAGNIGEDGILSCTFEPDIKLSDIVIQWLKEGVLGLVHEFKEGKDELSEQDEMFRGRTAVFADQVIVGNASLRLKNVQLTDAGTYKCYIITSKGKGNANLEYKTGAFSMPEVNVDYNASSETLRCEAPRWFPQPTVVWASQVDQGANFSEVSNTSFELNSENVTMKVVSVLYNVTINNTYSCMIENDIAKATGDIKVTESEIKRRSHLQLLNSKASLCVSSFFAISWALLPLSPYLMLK
Method summary: saturation binding, flow cytometry on 624mel/B7-H4 cells, biotinylated mAb, azide-treated cells; unit not given
Catalogue of Bmax readings, one per entry.

Here is how some binders turned out for Bmax.
[
  {
    "Binder": "humanized 6H3 variant 6 (antibody, V domains shown, also called V6; Variant 6 (antibody)) VH: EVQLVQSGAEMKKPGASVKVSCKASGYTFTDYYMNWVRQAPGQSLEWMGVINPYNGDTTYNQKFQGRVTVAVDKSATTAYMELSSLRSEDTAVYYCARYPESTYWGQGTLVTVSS VL: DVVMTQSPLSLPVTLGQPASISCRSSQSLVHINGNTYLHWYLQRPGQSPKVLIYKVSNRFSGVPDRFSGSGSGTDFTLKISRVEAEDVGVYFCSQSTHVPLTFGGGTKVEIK",
    "Assay value": 6420
  },
  {
    "Binder": "humanized 6H3 variant 7 (antibody, V domains shown, also called V7; 6H3 V7) VH: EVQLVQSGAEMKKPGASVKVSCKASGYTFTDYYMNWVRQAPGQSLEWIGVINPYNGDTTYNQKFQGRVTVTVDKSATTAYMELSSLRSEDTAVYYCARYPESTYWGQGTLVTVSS VL: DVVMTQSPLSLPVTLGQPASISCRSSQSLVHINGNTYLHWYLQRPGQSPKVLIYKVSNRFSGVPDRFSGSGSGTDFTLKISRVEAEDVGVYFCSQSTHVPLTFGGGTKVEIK",
    "Assay value": 6080
  },
  {
    "Binder": "humanized 6H3 variant 9 (antibody, V domains shown, also called V9; 6H3 V9) VH: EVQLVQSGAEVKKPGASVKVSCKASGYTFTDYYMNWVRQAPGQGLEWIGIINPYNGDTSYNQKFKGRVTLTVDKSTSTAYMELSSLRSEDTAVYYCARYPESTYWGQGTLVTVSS VL: DIVMTQTPLSLPVTLGQPASISCRSSQSLVHINGNTYLHWYQQRPGQSPRVLIYKVSNRFSGVPDRFSGSGSGTDFTLKISRVEAEDVGVYFCSQSTHVPLTFGQGTKVEIK",
    "Assay value": 4610
  }
]

Lookup: Entry humanized 6H3 variant 12 (antibody, V domains shown, also called V12; 6H3 V12) VH: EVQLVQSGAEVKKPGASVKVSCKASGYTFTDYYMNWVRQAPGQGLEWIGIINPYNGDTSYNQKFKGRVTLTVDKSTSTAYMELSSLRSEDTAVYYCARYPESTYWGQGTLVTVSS VL: DIVMTQTPLSLPVTLGQPASISCRSSQSLVHINGNTYLHWYLQRPGQSPKVLIYKVSNRFSGVPDRFSGSGSGTDFTLKISRVEAEDVGVYFCSQSTHVPLTFGAGTKVEIK has what Bmax?
Found: 4580

Lookup: Value lookup for Bmax; key = humanized 6H3 variant 2 (antibody, V domains shown, also called V2; 6H3 V2) VH: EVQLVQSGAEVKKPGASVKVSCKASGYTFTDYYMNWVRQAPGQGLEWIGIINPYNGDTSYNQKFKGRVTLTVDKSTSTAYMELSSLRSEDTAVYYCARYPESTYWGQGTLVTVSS VL: DVVMTQSPLSLPVTLGQPASISCRSSQSLVHINGNTYLHWYQQRPGQSPRVLIYKVSNRFSGVPDRFSGSGSGTDFTLKISRVEAEDVGVYFCSQSTHVPLTFGGGTKVEIK
Found: 4650

Lookup: Which value of Bmax has been reported for humanized 6H3 variant 14 (antibody, V domains shown, also called V14; 6H3 V14) VH: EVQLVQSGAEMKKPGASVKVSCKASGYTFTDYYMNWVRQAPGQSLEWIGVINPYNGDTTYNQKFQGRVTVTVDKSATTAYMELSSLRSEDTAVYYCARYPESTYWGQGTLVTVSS VL: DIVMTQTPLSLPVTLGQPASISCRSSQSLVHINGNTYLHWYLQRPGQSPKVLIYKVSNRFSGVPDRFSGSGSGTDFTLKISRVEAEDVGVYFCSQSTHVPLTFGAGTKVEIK in the records?
Found: 5580

Lookup: Sample chimeric 6H3 (antibody, V domains shown, Mouse variable regions with constant regions from the human IgG1 heavy chain and human kappa light chain; also called human chimeric 6H3; hc6H3) VH: EVQLQQSGPVLVKPGTSVKMSCKASGYTFTDYYMNWVKQSHGKSLEWIGVINPYNGDTTYNQKFKGKATLTVDKSSSTAYMEVNSLTFEDSAVYYCARYPESTYWGQGTLVTVSA VL: DVVMTQTPLSLPVSLGDQASISCRSSQSLVHINGNTYLHWYLQKPGQSPKVLIYKVSNRFSGVPDRFSGSGSGTDFTLKISRVEAEDLGVYFCSQSTHVPLTFGAGTKLELK — what was its Bmax?
Found: 5810
